Examples of binders with documented koff follow.
Target: T1, CEA-derived … (SEQ ID NO: 71)-HLA-A*0201 complex (biotin on the C-terminal biotinylation tag (enzymatic, BirA))
T1 construct: also called soluble biotinylated HLA-A2-peptide complex; not shown: C-terminal biotinylation tag that replaces the transmembrane and cytoplasmic domains
Experiment: Biacore SPR, pMHC immobilised
Experimental: SPR measures changes in refractive index expressed in response units (RU) near a sensor surface within a small flow cell, a principle that can be used to detect receptor ligand interactions and to analyse their affinity and kinetic parameters. The probe flow cells were prepared by immobilising the pMHC complexes in flow cells via biotin-tag binding. […]

binder: SEQ ID NO 12 (receptor) MAGHLPKPTLWAEPGSVITMDQPVTLRCQGGQETQEYRLYREKKTAPWITRIPQELVKKGQFPIPSITWEHAGRYRCYYGSDTSQWSASSDPLELVVTGVYIKPTLSAQPSPVVNSGGNVTLQCDSQVAFDGFILCKEGEDEHPQCLNSQPHARGSSRAIFSVGPVSPSRRWWYRCYAYVSYWPYEWSLPSDLLELDVDG
koff: ≤ 2 s⁻¹
--
binder: SEQ ID NO 64 (receptor) MGHLPKPTLWAEPGSVITMDQPVTLRCQGGQETQEYRLYREKKTAPWITRIPQELVKKGQFPIPSITWEHAGRYRCYYGSDTSQWSASSDPLELVVTGVYIKPTLSAQPSPVVNSGGNVTLQCDSPFQADGFILCKEGEDEHPQCLNSQPHARGSSRAIFSVGPVSPSRRWWYRCYAYMSWSPYEWSLPSDLLELDVDG
koff: ≤ 2 s⁻¹
--
binder: SEQ ID NO 48 (receptor) MAGHLPKPTLWAEPGSVITMDQPVTLRCQGGQETQEYRLYREKKTAPWITRIPQELVKKGQFPIPSITWEHAGRYRCYYGSDTSQWSASSDPLELVVTGVYIKPTLSAQPSPVVNSGGNVTLQCDSQVAFDGFILCKEGEDEHPQCLNSQPHARGSSRAIFSVGPVSPSRRWWYRCYAYDSWAPYEWSLPSDLLELDVDG
koff: ≤ 2 s⁻¹
